Quick reference: Growth Rate of the listed items.
Test system: HEK-293T
Experiment: Incucyte cell viability with HEK293T; note: filed as whole numbers so only -1 and 0 and 1 occur
Type: toxicity, cell-based
Details: human, 6 h, 10 µM, compound concentration 10 uM, replicate number 1, timepoint 6 hours
Respond using a number only.

Example entries and their recorded answers appear below.
Q: Consider the compound Cl.Cn1c2c(c3ccc(Cl)c(Cl)c31)C(C#N)C1(CCNCC1)NC2=O (stereo not given) and give its measured Growth Rate.
Ans: 0

Q: CCOc1ccn(-c2ccc(F)cc2)c(=O)c1C(=O)Nc1ccc(Oc2ccnc(N)c2Cl)c(F)c1 [BMS-777607] , same question.
Ans: 0

Q: CCN1CCC[C@H]1CNC(=O)c1c(OC)ccc(Br)c1OC [REMOXIPRIDE] , same question.
Ans: 1

Q: `N#Cc1cccc(C(=O)Nc2cc(-c3ccccc3)nn2-c2ccccc2)c1` , same question.
Ans: 0

Please examine the following record next.
Q: Consider the compound C[C@@H](Oc1cc(-n2cnc3ccc(CN4CCN(C)CC4)cc32)sc1C(N)=O)c1ccccc1C(F)(F)F [GSK-461364] and give its measured Growth Rate.
Ans: 0

----------
Quick reference: Population Mitotic Cells (%) of the listed items.
Tested on: Fibroblast
Assay: Multiplex assay against human fibroblast
Assay type: toxicity, cell-based
Details: 12 h, 1 µM, compound concentration 1 uM, replicate 1
Expressed in %, but write only the number.

Example entries and their recorded answers appear below.
Q: Consider the molecule `N#Cc1cccc(C(=O)Nc2cc(-c3ccccc3)nn2-c2ccccc2)c1` and give its measured Population Mitotic Cells (%).
Ans: 34

Q: NC(=O)c1ccc2nc(-c3ccc(C4(N)CCC4)cc3)c(-c3ccccc3)n2n1 [BAY-1125976] , same question.
Ans: 27

New cases:
Q: Consider the molecule `CN(c1cc(C(F)(F)F)nc(OCCC(=O)O)n1)c1cccc2c1CCC2` and give its measured Population Mitotic Cells (%).
Ans: 29

----------
Test system: U2OS
Test: Multiplex assay against U2OS
Assay type: toxicity, cell-based
Details: human, 24 h, 10 µM, compound concentration 10 uM, replicate 1
Note to self: values exactly at 20% are class 1. So Population Fragmented Nuclei (%) at or above 20% is class 1, below is class 0.

Record excerpt, results attached:
Q: Could you please find out whether CCOc1ccn(-c2ccc(F)cc2)c(=O)c1C(=O)Nc1ccc(Oc2ccnc(N)c2Cl)c(F)c1 [BMS-777607] has Population Fragmented Nuclei (%) that meets 20% or exceeds it?
Ans: class 0

Q: `c1ccc(-c2oc3ncnc(NC[C@@H]4CCCO4)c3c2-c2ccccc2)cc1` , same question.
Ans: class 0

Q: `Cl.NC[C@@H]1O[C@H](C23CC4CC(CC(C4)C2)C3)Cc2c1ccc(O)c2O` , same question.
Ans: class 1

Q: C[C@@H](Oc1cc(-n2cnc3ccc(CN4CCN(C)CC4)cc32)sc1C(N)=O)c1ccccc1C(F)(F)F [GSK-461364] , same question.
Ans: class 1

Q: `N#Cc1cccc(C(=O)Nc2cc(-c3ccccc3)nn2-c2ccccc2)c1` , same question.
Ans: class 0

New cases:
Q: Could you please find out whether CC(C)[C@H](CO)Nc1nc(Nc2cccc(Cl)c2)c2ncn(C(C)C)c2n1 [PURVALANOLA] has Population Fragmented Nuclei (%) that meets 20% or exceeds it?
Ans: class 1

Q: CC(Cc1ccc(O)c(O)c1)C(C)Cc1ccc(O)c(O)c1 (configuration not stated) [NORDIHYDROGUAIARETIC ACID] , same question.
Ans: class 0

Q: `Cc1ccc(S(=O)(=O)NC2c3ccccc3Oc3ccccc32)cc1` , same question.
Ans: class 1

----------
Test system: HEK-293T
Experiment: Incucyte cell viability with HEK293T; note: filed as whole numbers so only -1 and 0 and 1 occur
Type: toxicity, cell-based
Details: human, 0 h, 10 µM, compound concentration 10 uM, replicate number 1, timepoint 0 hours
readout.type: Growth Rate

Example entries and their recorded answers appear below.
Q: Consider the compound `C/C(=N\NC(=O)[C@@H]1C(=O)NC[C@H]1c1ccccc1)c1cccc(Br)c1` and give its measured Growth Rate.
Ans: 1

Q: `Cc1c(F)cccc1NC(=O)Nc1ccc(Cl)c(S(=O)(=O)[C@H]2CCCNC2)c1O` , same question.
Ans: 0

Q: `N#Cc1cccc(C(=O)Nc2cc(-c3ccccc3)nn2-c2ccccc2)c1` , same question.
Ans: 0

Q: `Cc1c(C2=CCN(C(=O)N(C)C(C)C)CC2)nnn1-c1cccnc1F` , same question.
Ans: 0

Please examine the following record next.
Q: Consider the compound CCN1CCC[C@H]1CNC(=O)c1c(OC)ccc(Br)c1OC [REMOXIPRIDE] and give its measured Growth Rate.
Ans: 0

----------
Quick reference: Total Cell Count of the listed items.
System: U2OS
Assay: Multiplex assay against U2OS
Format: toxicity, cell-based
Settings: human, 24 h, 1 µM, compound concentration 1 uM, replicate 2
Respond using a number only.

Example entries and their recorded answers appear below.
Q: Consider the molecule `CC[C@@H]1C(=O)N(C)c2cnc(Nc3ccc(C(=O)NC4CCN(C)CC4)cc3OC)nc2N1C1CCCC1` and give its measured Total Cell Count.
Ans: 115

Q: `N#CCNC(=O)c1ccc(-c2ccnc(Nc3ccc(N4CCOCC4)cc3)n2)cc1` , same question.
Ans: 3108

Q: `CC(/C=C1\SC(=S)N(CCCC(=O)Nc2ccc(C(=O)O)c(O)c2)C1=O)=C\c1ccccc1` , same question.
Ans: 64

Q: `CC(C)c1cc(Nc2nc(N3CCC[C@H](N)C3)ncc2C(N)=O)cc(C(C)C)n1` , same question.
Ans: 77

Q: `Cc1ccc(S(=O)(=O)NC2c3ccccc3Oc3ccccc32)cc1` , same question.
Ans: 65

Q: `CC[C@H](Nc1ncnc2[nH]cnc12)c1nc2cccc(F)c2c(=O)n1-c1ccccc1` , same question.
Ans: 148

New cases:
Q: Consider the molecule `CCOC(=O)CCNc1cc(N2CCc3ccccc3CC2)nc(-c2ccccn2)n1` and give its measured Total Cell Count.
Ans: 146

Q: CCCCCNC(=N)N/N=C/c1c[nH]c2ccc(OC)cc12.O=C(O)/C=C\C(=O)O [TEGASEROD MALEATE] , same question.
Ans: 89

Q: `CC(C)[C@H](CO)Nc1nc(Nc2cccc(Cl)c2)c2ncn(C(C)C)c2n1` , same question.
Ans: 157

Q: `N#Cc1cccc(C(=O)Nc2cc(-c3ccccc3)nn2-c2ccccc2)c1` , same question.
Ans: 68

Q: CN1C(=O)[C@@H](NC(=O)c2cc3ccccc3[nH]2)N=C(c2ccccc2)c2ccccc21 [DEVAZEPIDE] , same question.
Ans: 79

----------
Quick reference: Growth Rate of the listed items.
System: U2OS
Assay: Incucyte cell viability with U2OS; note: filed as whole numbers so only -1 and 0 and 1 occur
Assay type: toxicity, cell-based
Settings: human, 18 h, 10 µM, compound concentration 10 uM, replicate number 1, timepoint 18 hours

Example entries and their recorded answers appear below.
Q: Consider the compound `O=C(N1CCS(=O)(=O)CC1)N1C[C@H](c2ccc(OC(F)(F)F)cc2)C[C@H](c2nc(C3CC3)no2)C1` and give its measured Growth Rate.
Ans: 0

Q: `COc1cc(Nc2ccnc3ccc(Br)cc23)cc(OC)c1OC` , same question.
Ans: 0

Q: `O=C(O)[C@H]1[C@H](Cn2nnc3ccccc3c2=O)CC[C@@H]1C(=O)c1ccc(OCCC2CCOCC2)cc1` , same question.
Ans: 0

New cases:
Q: Consider the compound CC(C)NCC(O)COc1cccc2ccccc12.Cl (configuration not stated) [PROPRANOLOL HYDROCHLORIDE] and give its measured Growth Rate.
Ans: 1

Q: `CC[C@@H]1CN(C(=O)NCC(F)(F)F)C[C@@H]1c1cnc2cnc3[nH]ccc3n12` , same question.
Ans: 0

Q: `CCN(CCO)CCCOc1ccc2c(Nc3cc(CC(=O)Nc4cccc(F)c4)[nH]n3)ncnc2c1` , same question.
Ans: 0

Q: `CCc1cc(Nc2nccc(-c3c(-c4ccc(OC)c(C(=O)Nc5c(F)cccc5F)c4)nc4ccccn34)n2)c(OC)cc1N1CCC(N2CCN(S(C)(=O)=O)CC2)CC1` , same question.
Ans: 1

Q: `C/C(=N\NC(=O)[C@@H]1C(=O)NC[C@H]1c1ccccc1)c1cccc(Br)c1` , same question.
Ans: 0

Q: `Cc1c(C2=CCN(C(=O)N(C)C(C)C)CC2)nnn1-c1cccnc1F` , same question.
Ans: 1

Q: `Cc1c(Nc2ccc(S(=O)(=O)N3CCN(C)CC3)cc2F)nc2ccc(Nc3cnn(C4CC4)c3)cn2c1=O` , same question.
Ans: 0

Q: `CCOC(=O)CCNc1cc(N2CCc3ccccc3CC2)nc(-c2ccccn2)n1` , same question.
Ans: 0

Q: `COc1ccc2c(c1)O[C@@H](c1ccc(OC)c(OC)c1)C[C@H]2NC(=O)C1(c2ccc3c(c2)OC(F)(F)O3)CC1` , same question.
Ans: 1

----------
Test system: Fibroblast
Assay: Multiplex assay against human fibroblast
Type: toxicity, cell-based
Conditions: 12 h, 1 µM, compound concentration 1 uM, replicate 2
readout.type: Population Membrane Permeable-Phenotype (%)
Expressed in %, but write only the number.

Example entries and their recorded answers appear below.
Q: # returns recorded Population Membrane Permeable-Phenotype (%) (system: Fibroblast) for `Cc1ccc(S(=O)(=O)NC2c3ccccc3Oc3ccccc32)cc1`
Ans: 0

Q: `Cl.NC[C@@H]1O[C@H](C23CC4CC(CC(C4)C2)C3)Cc2c1ccc(O)c2O` , same question.
Ans: 2

Q: `Cc1ccc(NC(=O)Nc2cc(C(F)(F)F)ccc2F)cc1Nc1ccc2c(c1)NC(=O)/C2=C\c1ccc[nH]1` , same question.
Ans: 63

Q: `CCCc1cc(C)[nH]c(=O)c1CNC(=O)c1cc(-c2ccc(N3CCN(C(C)C)CC3)nc2)cc2c1cnn2C(C)C` , same question.
Ans: 8

Q: `CC[C@@H]1C(=O)N(C)c2cnc(Nc3ccc(C(=O)NC4CCN(C)CC4)cc3OC)nc2N1C1CCCC1` , same question.
Ans: 0

New cases:
Q: # returns recorded Population Membrane Permeable-Phenotype (%) (system: Fibroblast) for `Cc1c(P(=S)(c2ccccc2)c2ccccc2)n2ccccc2[n+]1C/C=C/c1ccccc1.[Br-]`
Ans: 10

Q: `CC(C)[C@H](CO)Nc1nc(Nc2cccc(Cl)c2)c2ncn(C(C)C)c2n1` , same question.
Ans: 7

Q: `C[C@@H](Oc1cc(-n2cnc3ccc(CN4CCN(C)CC4)cc32)sc1C(N)=O)c1ccccc1C(F)(F)F` , same question.
Ans: 12
